Source listed as ChEMBL document CHEMBL1142396.

Organism: Rattus norvegicus
Assay: Inhibition of bone resorption in rat assessed as phosphate
Assay type: functional
Can you tell me log10 of LED for the items I'm about to list?
Note the log scale: values are log10 of LED expressed in µg/kg.

List log10 of LED for every entry below, keeping the order given.
1. Nc1ccccc1CC(O)(P(=O)(O)O)P(=O)(O)O
2. O=P(O)(O)C(O)(Cc1ccccn1)P(=O)(O)O
3. O=P(O)(O)C(NC1CCCCC1)P(=O)(O)O
4. O=P(O)(O)C(Cc1ccccn1)P(=O)(O)O

Return:
[0.00, 0.00, 0.00, 1.00]

List log10 of LED for every entry below, keeping the order given.
1. O=P(O)(O)C(O)(CCc1cccnc1)P(=O)(O)O
2. O=P(O)(O)C(CNc1ccccn1)P(=O)(O)O
3. CC1CCCN=C1NC(P(=O)(O)O)P(=O)(O)O (configuration not stated)
4. NCCCCCC(O)(P(=O)(O)O)P(=O)(O)O
5. NCCC(O)(P(=O)(O)O)P(=O)(O)O
6. C[n+]1cccc(CC(O)(P(=O)(O)O)P(=O)(O)O)c1
7. O=P(O)(O)C(O)(Cc1ccccc1)P(=O)(O)O
8. O=P(O)(O)C(Cc1cccnc1)P(=O)(O)O

Return:
1. 3.00
2. 1.00
3. -0.52
4. 1.00
5. 1.48
6. -1.00
7. 2.00
8. 1.00
